The following molecules are shown together with reported Metab. Stabil. (m) values.
test: rat microsomal stability (RLM); details: microsomal half-life

Known Metab. Stabil. (m) results, listed for orientation:
COC(=O)c1ccnc(NC(=O)C2=C(C)NC(Nc3nc4ccc(F)cc4o3)=N[C@@H]2c2ccccc2Cl)c1; 24.28 m
COc1ccc2oc(NC3=NC(c4ccccc4Cl)C(C(=O)Nc4nnc(-c5cccnc5)s4)=C(C)N3)nc2c1 (stereo not shown); >30 m

Q. // lookup Metab. Stabil. (m) for CC1=C(C(=O)Nc2cc(C(=O)O)ccn2)C(c2ccc(C)cc2Cl)N=C(Nc2nc3cccc(N)c3o2)N1 (racemic)
A. >30 m
